- target or system: human CCR8 (human, UniProt P51685 1-355)
- test name: cell-based or functional assay
Task for the reader: assign each of the following binders its reported hCCL1 (100 nM) residual response, Protocol #2, mAb 0.4 µg/mL.
One number for each entry, in %.

3-13 (antibody, V domains shown) VH: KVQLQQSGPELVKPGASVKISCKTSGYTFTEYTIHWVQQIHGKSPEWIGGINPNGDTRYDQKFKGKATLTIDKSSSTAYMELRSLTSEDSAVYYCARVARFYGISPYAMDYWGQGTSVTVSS VL: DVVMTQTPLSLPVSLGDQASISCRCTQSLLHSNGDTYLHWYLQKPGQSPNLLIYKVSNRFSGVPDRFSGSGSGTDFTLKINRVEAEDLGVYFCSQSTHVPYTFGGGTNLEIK
93
3-32 (antibody, V domains shown) VH: EVQLVESGGGLVQPKGSLKLSCAASGFTFNAYAMNWVRQAPGKGLEWLARIRSKSNNYATYYADSVKDRFTISRDDSQSMFYLQMNNLKSEDTAMYYCVRGREAYYRYDGGYYAMDYWGQGTSVTVSS VL: EIVMTQAALSAPVTPGESVSMSCRSSKSLLHSNGNTYLYWFLQRPGQSPQLLIYRMSNLASGVPDRFSGSGSGTAFTLRISRVEAEDVGVYYCMQHLEYPFTFGSGTKLEIK
57

Then there is this binder:
Lookup result for 3-33 (antibody, V domains shown) VH: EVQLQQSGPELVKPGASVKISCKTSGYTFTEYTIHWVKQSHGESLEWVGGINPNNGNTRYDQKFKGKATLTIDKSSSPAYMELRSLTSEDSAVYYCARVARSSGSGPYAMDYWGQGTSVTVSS VL: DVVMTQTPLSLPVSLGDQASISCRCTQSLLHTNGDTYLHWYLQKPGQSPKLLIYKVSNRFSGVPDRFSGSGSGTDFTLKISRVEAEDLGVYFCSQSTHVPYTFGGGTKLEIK ; measured hCCL1 (100 nM) residual response, Protocol #2, mAb 0.4 µg/mL: 46

Cited source: patent US20260234276A1
